Kindly state pIC50 for each of the entries shown.
# target.desc: Histone deacetylase 1 (Homo sapiens)
# Sequence (Q13547 whole entry): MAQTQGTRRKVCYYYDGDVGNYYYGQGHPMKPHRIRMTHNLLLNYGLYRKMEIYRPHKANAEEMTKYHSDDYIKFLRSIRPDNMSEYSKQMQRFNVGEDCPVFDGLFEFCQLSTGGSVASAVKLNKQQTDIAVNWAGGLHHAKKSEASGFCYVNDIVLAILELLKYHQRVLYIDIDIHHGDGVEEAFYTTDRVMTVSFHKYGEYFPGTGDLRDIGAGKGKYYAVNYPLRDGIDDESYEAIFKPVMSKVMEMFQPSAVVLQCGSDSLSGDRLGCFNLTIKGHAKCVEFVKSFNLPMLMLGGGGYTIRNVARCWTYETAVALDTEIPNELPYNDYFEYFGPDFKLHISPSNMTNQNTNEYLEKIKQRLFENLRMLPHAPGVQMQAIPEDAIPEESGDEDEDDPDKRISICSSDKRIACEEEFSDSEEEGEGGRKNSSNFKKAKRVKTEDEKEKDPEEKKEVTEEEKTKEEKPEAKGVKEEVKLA
# procedure.details: Inhibition of HDAC1 in human HeLa cell lysate using KI-104 as substrate after 40 mins by fluorescence analysis
Expect pIC50 as a plain number equal to -log10 of the molar concentration.

// returns pIC50 for O=C(/C=C\c1cn(-c2ccccc2)nc1-c1ccc(Br)cc1)Nc1ccc(Cl)cc1 with Histone deacetylase 1 (Homo sapiens); value = 5.53

# O=C(/C=C\c1cn(-c2ccccc2)nc1-c1ccc([N+](=O)[O-])cc1)Nc1ccccc1 with Histone deacetylase 1 (Homo sapiens): pIC50 is 6.04

The reported Histone deacetylase 1 (Homo sapiens) pIC50 of COc1ccc(-c2nn(-c3ccccc3)cc2/C=C\C(=O)Nc2ccc(Cl)cc2)cc1 is 5.96

Observed pIC50 on Histone deacetylase 1 (Homo sapiens), entry Cc1ccc(-c2nn(-c3ccccc3)cc2/C=C\C(=O)Nc2ccccc2)cc1 , equals 5.39

Tested system Histone deacetylase 1 (Homo sapiens); pIC50 recorded for O=C(/C=C\c1cn(-c2ccccc2)nc1-c1ccc(Br)cc1)Nc1ccccc1 was 5.46

Here Cc1ccc(-c2nn(-c3ccccc3)cc2/C=C\C(=O)Nc2ccc(Cl)cc2)cc1 was tested on Histone deacetylase 1 (Homo sapiens), and its pIC50 came to 5.44

The recorded pIC50 with Histone deacetylase 1 (Homo sapiens) for COc1ccc(NC(=O)/C=C\c2cn(-c3ccccc3)nc2-c2ccc([N+](=O)[O-])cc2)cc1 was 5.99

Fill in: Histone deacetylase 1 (Homo sapiens) pIC50 for O=C(/C=C\c1cn(-c2ccccc2)nc1-c1ccc([N+](=O)[O-])cc1)Nc1ccc(Cl)cc1 = 6.34

The value of pIC50 recorded for O=C(/C=C\c1cn(-c2ccccc2)nc1-c1ccc([N+](=O)[O-])cc1)Nc1ccc(Br)cc1 when tested on Histone deacetylase 1 (Homo sapiens) reads 6.38

# lookup: COc1ccc(-c2nn(-c3ccccc3)cc2/C=C\C(=O)Nc2ccccc2)cc1 on Histone deacetylase 1 (Homo sapiens), pIC50 = 5.75

The observed pIC50 for COc1ccc(NC(=O)/C=C\c2cn(-c3ccccc3)nc2-c2ccc(C)cc2)cc1 when tested with Histone deacetylase 1 (Homo sapiens) stands at 5.39

Simply: Cc1ccc(-c2nn(-c3ccccc3)cc2/C=C\C(=O)Nc2ccc(Br)cc2)cc1 , Histone deacetylase 1 (Homo sapiens), pIC50 = 5.48

COc1ccc(-c2nn(-c3ccccc3)cc2/C=C\C(=O)Nc2ccc(Br)cc2)cc1 on Histone deacetylase 1 (Homo sapiens) gives pIC50 = 5.98

Measured on Histone deacetylase 1 (Homo sapiens), O=C(/C=C\c1cn(-c2ccccc2)nc1-c1ccc(Br)cc1)Nc1ccc(Br)cc1 has a documented pIC50 of 5.55

Reported Histone deacetylase 1 (Homo sapiens) pIC50 for item COc1ccc(NC(=O)/C=C\c2cn(-c3ccccc3)nc2-c2ccc(OC)cc2)cc1 was 5.76

Bench note, Histone deacetylase 1 (Homo sapiens): COc1ccc(NC(=O)/C=C\c2cn(-c3ccccc3)nc2-c2ccc(Br)cc2)cc1 , pIC50 reads 5.48

###

# target.desc: Histone deacetylase 2 (Homo sapiens, UniProt Q92769)
# Sequence (Q92769 whole entry): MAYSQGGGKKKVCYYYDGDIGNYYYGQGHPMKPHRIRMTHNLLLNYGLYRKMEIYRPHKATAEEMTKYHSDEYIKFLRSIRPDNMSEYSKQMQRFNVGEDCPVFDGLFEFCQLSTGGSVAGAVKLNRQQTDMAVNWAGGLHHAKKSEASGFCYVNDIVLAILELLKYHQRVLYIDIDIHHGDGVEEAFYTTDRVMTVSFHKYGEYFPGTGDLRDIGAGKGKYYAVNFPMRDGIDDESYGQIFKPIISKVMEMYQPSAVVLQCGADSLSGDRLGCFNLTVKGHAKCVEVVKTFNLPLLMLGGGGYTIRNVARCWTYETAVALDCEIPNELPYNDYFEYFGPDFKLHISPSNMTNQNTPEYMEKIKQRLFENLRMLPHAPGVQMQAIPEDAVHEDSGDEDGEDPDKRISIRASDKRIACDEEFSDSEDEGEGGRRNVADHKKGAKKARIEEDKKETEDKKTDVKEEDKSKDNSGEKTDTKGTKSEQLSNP
# procedure.details: Inhibition of HDAC2 in human HeLa cell lysate using KI-104 as substrate after 40 mins by fluorescence analysis
Assign pIC50 to each entry below.
Worth noting: pIC50 values are minus log10 of concentrations stated in mol/L.

pIC50 for Histone deacetylase 2 (Homo sapiens, UniProt Q92769) with input O=C(/C=C\c1cn(-c2ccccc2)nc1-c1ccc(Br)cc1)Nc1ccc(Br)cc1 equals 5.31

Form field, pIC50 with Histone deacetylase 2 (Homo sapiens, UniProt Q92769), item O=C(/C=C\c1cn(-c2ccccc2)nc1-c1ccc([N+](=O)[O-])cc1)Nc1ccccc1 : 5.94

For Cc1ccc(-c2nn(-c3ccccc3)cc2/C=C\C(=O)Nc2ccc(Cl)cc2)cc1 on Histone deacetylase 2 (Homo sapiens, UniProt Q92769), measured pIC50 was 5.23

pIC50 for Histone deacetylase 2 (Homo sapiens, UniProt Q92769) with input Cc1ccc(-c2nn(-c3ccccc3)cc2/C=C\C(=O)Nc2ccccc2)cc1 equals 5.06

Histone deacetylase 2 (Homo sapiens, UniProt Q92769) pIC50 of COc1ccc(NC(=O)/C=C\c2cn(-c3ccccc3)nc2-c2ccc(Br)cc2)cc1 is 5.27

O=C(/C=C\c1cn(-c2ccccc2)nc1-c1ccc(Br)cc1)Nc1ccccc1 tested on Histone deacetylase 2 (Homo sapiens, UniProt Q92769) gave pIC50: 5.19

I looked up Cc1ccc(-c2nn(-c3ccccc3)cc2/C=C\C(=O)Nc2ccc(Br)cc2)cc1 and its pIC50 for Histone deacetylase 2 (Homo sapiens, UniProt Q92769) was 5.30

// compound COc1ccc(-c2nn(-c3ccccc3)cc2/C=C\C(=O)Nc2ccc(Cl)cc2)cc1 , assay Histone deacetylase 2 (Homo sapiens, UniProt Q92769), pIC50 value: 5.63

Entry COc1ccc(NC(=O)/C=C\c2cn(-c3ccccc3)nc2-c2ccc(C)cc2)cc1 , Histone deacetylase 2 (Homo sapiens, UniProt Q92769) data, pIC50 value: 5.19

Record for O=C(/C=C\c1cn(-c2ccccc2)nc1-c1ccc([N+](=O)[O-])cc1)Nc1ccc(Cl)cc1 under target or system Histone deacetylase 2 (Homo sapiens, UniProt Q92769): pIC50 reported as 6.24

The reported pIC50 value, Histone deacetylase 2 (Homo sapiens, UniProt Q92769), for COc1ccc(NC(=O)/C=C\c2cn(-c3ccccc3)nc2-c2ccc(OC)cc2)cc1 reads 5.52

COc1ccc(-c2nn(-c3ccccc3)cc2/C=C\C(=O)Nc2ccc(Br)cc2)cc1 on Histone deacetylase 2 (Homo sapiens, UniProt Q92769) gives pIC50 = 5.66

So the reported pIC50 for COc1ccc(-c2nn(-c3ccccc3)cc2/C=C\C(=O)Nc2ccccc2)cc1 , on Histone deacetylase 2 (Homo sapiens, UniProt Q92769), turned out to be 5.57

Histone deacetylase 2 (Homo sapiens, UniProt Q92769) pIC50 of O=C(/C=C\c1cn(-c2ccccc2)nc1-c1ccc(Br)cc1)Nc1ccc(Cl)cc1 is 5.30

Test item COc1ccc(NC(=O)/C=C\c2cn(-c3ccccc3)nc2-c2ccc([N+](=O)[O-])cc2)cc1 ; Histone deacetylase 2 (Homo sapiens, UniProt Q92769); reported pIC50 was 5.94

// returns pIC50 for O=C(/C=C\c1cn(-c2ccccc2)nc1-c1ccc([N+](=O)[O-])cc1)Nc1ccc(Br)cc1 with Histone deacetylase 2 (Homo sapiens, UniProt Q92769); value = 6.26
